Please provide measured protein stability index for the entries that follow.
B1: DYRK1B (parent)
chain: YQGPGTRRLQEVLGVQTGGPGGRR

variants of: B1; assay: protein stability index of a GFP-peptide fusion (GPS, HEK-293T) (PSI 1-6); higher = more stable; conditions: c terminus: a fixed tail appended;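 note: lentivirally expressed fusions sorted by FACS into six bins by GFP to DsRed ratio, PSI derived from sequencing read proportions per bin multiplied by bin number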

The examples below pair each entry with its known result.
# seq-text, protein stability index
data = [
    ("YQGPGTRRLQEVLGVQTGHPGGRR [G19H]", 2.98),
    ("YQGPGTRRYQEVLGVQTGGPGGRR [L9Y]", 3.06),
]

Required: protein stability index, one value per variant below.
1. YQGPGTRRLQEVLGVQTGGPGSRR [G22S]
2. YQGPGTRRLQEVLGVQTGGPGGGR [R23G]
3. YQGPGTRRLQEVLGVQTGGPGWRR [G22W]
4. YQGPGTRRLQEVLGVQTGGPFGRR [G21F]

Output line:
[3.05, 3.01, 3.01, 2.93]
